system: HEPG2; experiment: Euclidean distance of Cell Painting phenotypic profile (signed KS, 77 features) to DMSO centroid (dimensionless distance); 5 or 10 uM (library dependent); higher = stronger phenotypic change vs DMSO (phenoactivity); conditions: 48 h
Each entry gets condition not met if its Euclidean distance stays under 0.6, and condition met if its Euclidean distance is 0.6 or above.

Q) For this compound, is measured Euclidean distance 0.6 or higher? C[C@@H]1NC(=O)[C@@H](N)CNC(=O)[C@H](C2CCNC(=N)N2)NC(=O)/C(=C/NC(N)=O)NC(=O)[C@H](CNC(=O)CC(N)CCCN)NC1=O.N=C1NCC[C@H]([C@@H]2NC(=O)/C(=C/NC(N)=O)NC(=O)[C@H](CNC(=O)C[C@@H](N)CCCN)NC(=O)[C@H](CO)NC(=O)[C@@H](N)CNC2=O)N1 [Capreomycin Sulfate]
A) condition met

Q) Is the recorded value of Euclidean distance equal to or greater than 0.6 for this compound? `CN1CC(=O)N2[C@H](c3ccc4c(c3)OCO4)c3[nH]c4ccccc4c3C[C@@H]2C1=O`
A) condition met

Q) Please tell me: is the compound CC(C)[N+](C)(CCOC(=O)C1c2ccccc2Oc2ccccc21)C(C)C [Propantheline bromide] at or over 0.6 in terms of Euclidean distance?
A) condition not met

Q) Has O=C1OC(OC(=O)c2cccnc2Nc2cccc(C(F)(F)F)c2)c2ccccc21 (stereo unspecified) [Talniflumate] a recorded Euclidean distance greater than or equal to 0.6?
A) condition met

Q) hey, is Euclidean distance for this one >= 0.6? CN1CCC(CNc2ccc3ncc(-c4cccc(OC(F)(F)F)c4)n3n2)CC1 [SGI-1776 free base]
A) condition met
